Attribute: solubility at 2 h
# procedureSummary: Saturated solubility in receiver fluid systems (HPLC)
# condition: 37 °C, pH 6, aqueous with cosolvent or surfactant or cyclodextrin, thermodynamic from solid, 20% ethanol in buffer pH6, 37° C.
Return type: number; implicit unit µg/mL.

For O=C1Nc2ccc(Cl)cc2C(c2ccccc2Cl)=NC1O (centres unmarked) the compound record lists solubility at 2 h as 309

For O=C1CN=C(c2ccccc2Cl)c2cc([N+](=O)[O-])ccc2N1 the compound record lists solubility at 2 h as 82.3

* * *

Attribute: solubility at 2 h
# procedureSummary: Saturated solubility in receiver fluid systems (HPLC)
# condition: 37 °C, pH 6, aqueous with cosolvent or surfactant or cyclodextrin, thermodynamic from solid, receiver solution, 10% ethanol in buffer pH 6, 37° C.
# Method: Following the stability studies, a suitable receiver fluid was developed in order to ensure that sink conditions for tested drug were such that the drug release was limited by the solubility of the drug in the receiver fluid. […] Briefly, drug was saturated into different receiver fluid systems by adding excess drug and allowed to stir with a magnetic flea over a period of 2 h at 37° C. […]

- O=C1CN=C(c2ccccc2Cl)c2cc([N+](=O)[O-])ccc2N1 [Clonazepam]: 29.3 µg/mL

Now look at this one.
For O=C1Nc2ccc(Cl)cc2C(c2ccccc2Cl)=NC1O (centres unmarked) [Lorazepam] the molecule record lists solubility at 2 h as 126 µg/mL

* * *

# procedureSummary: Solubility of clonazepam in neat solvents
# condition: PEG 200 (neat solvent), organic solvent or mixture
quantityName: solubility (mg/mL)
Return type: number; implicit unit mg/mL.

For O=C1CN=C(c2ccccc2Cl)c2cc([N+](=O)[O-])ccc2N1 the compound record lists solubility as 30.3

* * *

# procedureSummary: Solubilities of clonazepam in water-containing solvents
# Format: physicochemical
# condition: 25 °C, pH 6.8, aqueous with cosolvent or surfactant or cyclodextrin, kinetic from dmso stock, Di (ethyleneglycol) diethyl ether 60% solvent, 40% pH6.8 buffered water
quantityName: solubility
Note: state the figure and append the unit.

For O=C1CN=C(c2ccccc2Cl)c2cc([N+](=O)[O-])ccc2N1 [Clonazepam] the compound record lists solubility as 8500 µg/mL

* * *

# procedureSummary: Solubilities of clonazepam in glycol ethers at 3 temperatures
# condition: 1,2-dimethyxoethane, neat solvent, 5 °C, organic solvent or mixture, thermodynamic from solid
quantityName: solubility (mg/mL)
Return type: number; implicit unit mg/mL.

For O=C1CN=C(c2ccccc2Cl)c2cc([N+](=O)[O-])ccc2N1 the molecule record lists solubility as 35.7

* * *

# procedureSummary: Solubilities of clonazepam in glycol ethers at 3 temperatures
# condition: di(ethylene glycol) methyl ether, neat solvent, 5 °C, organic solvent or mixture, thermodynamic from solid
quantityName: solubility (mg/mL)
Return type: number; implicit unit mg/mL.

For O=C1CN=C(c2ccccc2Cl)c2cc([N+](=O)[O-])ccc2N1 the compound record lists solubility as 53.9

* * *

# procedureSummary: Solubility of clonazepam in neat solvents
# condition: propylene glycol (neat solvent), organic solvent or mixture
quantityName: solubility

For O=C1CN=C(c2ccccc2Cl)c2cc([N+](=O)[O-])ccc2N1 [Clonazepam] the compound record lists solubility as 3400 µg/mL

* * *

# procedureSummary: Drug recovery, degradation and binding to nasal sheep mucosa
# Type: in vitro ADME
# condition: sheep nasal mucosa (excised tissue) in buffer, 37° C., buffer pH 7 (10% ethanol), 48 h, read-out: % recovery in the presence of nasal sheep mucosa
quantityName: recovery at 48 h, 10 μg/mL (%)
Return type: number; implicit unit %.

- CN1C(=O)CN=C(c2ccccc2)c2cc(Cl)ccc21 [Diazepam]: 94.7
- O=C1Nc2ccc(Cl)cc2C(c2ccccc2Cl)=NC1O (stereo not drawn) [Lorazepam]: 91.7

For O=C1CN=C(c2ccccc2Cl)c2cc([N+](=O)[O-])ccc2N1 [Clonazepam] the compound record lists recovery at 48 h, 10 μg/mL as 97.8

The reported measurements were obtained from patent US8609651B2.
